test: Solubility in water; format: physicochemical
Where a name gives a salt, the structure may show the parent alone.
quantity_kind: solubility

Q. For the compound CC(=O)N[C@@H](CS)C(=O)O [(NAC)2Mg, N-acetyl-L-cysteine magnesium salt] , what solubility is on record?
A. ~500 mg/mL

Origin of values: patent EP0486921A1
